# target.under.test: DYRK2 (human) (UniProt Q92630)
# Sequence (Q92630 whole entry, looked up): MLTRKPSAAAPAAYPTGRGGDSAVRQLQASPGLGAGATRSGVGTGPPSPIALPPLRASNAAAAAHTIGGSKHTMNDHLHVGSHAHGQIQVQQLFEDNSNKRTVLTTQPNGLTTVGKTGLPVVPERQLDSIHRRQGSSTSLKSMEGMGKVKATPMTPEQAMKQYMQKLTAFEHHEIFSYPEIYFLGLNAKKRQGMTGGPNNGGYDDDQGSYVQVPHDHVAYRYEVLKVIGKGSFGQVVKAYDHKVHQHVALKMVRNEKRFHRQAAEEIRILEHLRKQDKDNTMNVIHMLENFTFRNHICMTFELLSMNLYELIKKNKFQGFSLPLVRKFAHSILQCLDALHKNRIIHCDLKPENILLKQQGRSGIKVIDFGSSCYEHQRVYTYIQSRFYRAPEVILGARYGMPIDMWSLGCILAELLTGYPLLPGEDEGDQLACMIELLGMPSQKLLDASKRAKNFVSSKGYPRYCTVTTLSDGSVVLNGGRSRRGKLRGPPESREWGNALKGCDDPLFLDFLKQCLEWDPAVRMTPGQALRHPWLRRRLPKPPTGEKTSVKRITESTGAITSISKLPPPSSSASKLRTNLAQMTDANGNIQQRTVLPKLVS
# assay.remarks: radiometric filter-binding kinase assay
# reported.conditions: compound 0.1 µM
parameter: residual activity (%)
Give bare numbers, in %.

{"input.smiles": "O=C(N[C@@H](COc1ccc2[nH]c(=O)[nH]c2c1)c1ccccc1)c1cccn(Cc2ccc(F)c(F)c2)c1=O", "reported.result": 110}
{"input.smiles": "CCn1c(-c2nonc2N)nc2cncc(CNC3CCNCC3)c21", "reported.result": 87}
{"input.smiles": "COc1cc(O)c2c(c1)/C=C/C[C@H](O)[C@H](O)C(=O)/C=C\\C[C@H](C)OC2=O", "reported.result": 114}
{"input.smiles": "C=CC(=O)N1CCC[C@@H](n2nc(-c3ccc(Oc4ccccc4)cc3)c3c(N)ncnc32)C1", "reported.result": 83}
{"input.smiles": "Cc1ccc(Sc2cnc(Nc3cccc(Br)n3)s2)cc1C(=O)N1CCN(C(=O)CN)CC1", "reported.result": 101}
{"input.smiles": "Cc1ccc(-c2ccc3c(ccc4sc5c(c43)NC[C@@H](C)NC5=O)n2)cn1", "reported.result": 101}

Switching to the query record.
IN: Recorded residual activity of NC1(c2ccc(-c3nc4ccn5c(=O)[nH]nc5c4cc3-c3ccccc3)cc2)CCC1 , please.
OUT: 96

====

# target.under.test: CDK2 CCNA2 (human) (UniProt P20248+P24941)
# assay.remarks: radiometric filter-binding kinase assay
# reported.conditions: compound 10.0 µM
parameter: residual activity
A bare number is not enough; add the unit after it.

Answered examples (2):
{"input.smiles": "COC(=O)/C=C/C(=O)OC", "target.under.test": "CDK2 CCNA2 (human) (UniProt P20248+P24941)", "parameter": "residual activity", "reported.result": "77%"}
{"input.smiles": "O=C1NC(=S)N[C@@H]1Cc1c[nH]c2ccccc12", "target.under.test": "CDK2 CCNA2 (human) (UniProt P20248+P24941)", "parameter": "residual activity", "reported.result": "94%"}

Switching to the query record.
IN: Recorded residual activity of O=S(=O)(c1ccc(F)c2nonc12)N1CCN(c2ncc(C(F)(F)F)cc2Cl)CC1 , please.
OUT: 88%

====

Would you mind telling me the reported residual activity of each entry?
# target.under.test: HIPK2 (human) (UniProt Q9H2X6)
# Sequence (Q9H2X6 whole entry, looked up): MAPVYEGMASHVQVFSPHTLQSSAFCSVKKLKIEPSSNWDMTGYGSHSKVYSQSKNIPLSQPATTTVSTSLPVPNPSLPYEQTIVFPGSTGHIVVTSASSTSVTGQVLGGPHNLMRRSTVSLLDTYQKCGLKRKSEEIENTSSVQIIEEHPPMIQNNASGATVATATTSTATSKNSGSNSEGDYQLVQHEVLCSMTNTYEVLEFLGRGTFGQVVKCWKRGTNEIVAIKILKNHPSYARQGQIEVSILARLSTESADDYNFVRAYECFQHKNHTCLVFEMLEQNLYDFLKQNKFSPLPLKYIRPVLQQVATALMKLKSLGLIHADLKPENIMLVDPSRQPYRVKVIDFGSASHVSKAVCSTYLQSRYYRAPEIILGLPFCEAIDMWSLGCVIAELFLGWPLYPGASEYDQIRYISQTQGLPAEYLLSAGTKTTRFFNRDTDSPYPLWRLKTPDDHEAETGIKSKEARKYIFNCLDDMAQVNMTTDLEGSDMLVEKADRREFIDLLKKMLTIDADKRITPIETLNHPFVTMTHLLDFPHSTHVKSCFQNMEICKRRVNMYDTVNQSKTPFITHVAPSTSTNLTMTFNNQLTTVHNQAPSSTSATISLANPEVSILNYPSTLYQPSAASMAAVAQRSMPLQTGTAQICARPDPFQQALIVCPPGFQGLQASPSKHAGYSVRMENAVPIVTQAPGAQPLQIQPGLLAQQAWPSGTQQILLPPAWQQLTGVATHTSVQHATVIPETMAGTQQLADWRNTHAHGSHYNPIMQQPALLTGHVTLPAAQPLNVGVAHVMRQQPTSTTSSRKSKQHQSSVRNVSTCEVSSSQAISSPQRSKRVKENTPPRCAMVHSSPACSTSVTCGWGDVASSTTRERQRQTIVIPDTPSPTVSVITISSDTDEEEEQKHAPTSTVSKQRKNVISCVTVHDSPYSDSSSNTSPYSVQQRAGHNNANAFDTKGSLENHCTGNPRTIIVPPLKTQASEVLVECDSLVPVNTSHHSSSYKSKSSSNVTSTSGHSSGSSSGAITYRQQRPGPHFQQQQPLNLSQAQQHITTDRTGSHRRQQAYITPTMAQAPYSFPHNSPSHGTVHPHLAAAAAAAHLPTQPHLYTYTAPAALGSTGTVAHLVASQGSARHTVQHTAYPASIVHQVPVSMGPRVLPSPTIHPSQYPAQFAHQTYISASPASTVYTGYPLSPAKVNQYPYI
# assay.remarks: radiometric filter-binding kinase assay
# reported.conditions: compound 0.1 µM
Give bare numbers, in %.

{"compound": "CCc1cncnc1N1CCN(Cc2nc3cc(C(F)(F)F)ccc3[nH]2)CC1", "residual activity, %": 108}
{"compound": "NC1(c2ccc(-c3nc4ccn5c(=O)[nH]nc5c4cc3-c3ccccc3)cc2)CCC1", "residual activity, %": 102}
{"compound": "O=C(NCCCNc1nc(Nc2cccc(CN3CCOCC3)c2)ncc1C1CC1)C1CCC1", "residual activity, %": 95}

Below is a list of compounds. For each, state its recorded residual activity.
1. CNc1nc(-c2ccc3c(N)n[nH]c3c2)cc(N2C[C@@H](C(=O)NC3CCCCC3)CC[C@H]2C)n1
2. CN(C)C/C=C/C(=O)Nc1cccc(C(=O)Nc2ccc(Nc3nccc(-c4cccnc4)n3)cc2)c1
3. CCCCCc1ccc(/C=C/[C@H](O)[C@@H](CO)NC)cc1

OUT:
1: 124; 2: 85; 3: 108

Below is a list of compounds. For each, state its recorded residual activity.
1. COc1ccc2c(c1)c1c3c(c4c5ccccc5n(C)c4c1n2CC(O)CN(C)C)C(=O)NC3=O (centres undefined)
2. CN1CCN(CCOc2cc(OC3CCOCC3)c3c(Nc4c(Cl)ccc5c4OCO5)ncnc3c2)CC1
3. O=C(N[C@@H](COc1ccc2[nH]c(=O)[nH]c2c1)c1ccccc1)c1cccn(Cc2ccc(F)c(F)c2)c1=O

OUT:
97
80
92

====

Would you mind telling me the reported residual activity of each entry?
# target.under.test: JAK2 JH1 JH2 (human) (UniProt O60674)
# Sequence (O60674 whole entry, looked up): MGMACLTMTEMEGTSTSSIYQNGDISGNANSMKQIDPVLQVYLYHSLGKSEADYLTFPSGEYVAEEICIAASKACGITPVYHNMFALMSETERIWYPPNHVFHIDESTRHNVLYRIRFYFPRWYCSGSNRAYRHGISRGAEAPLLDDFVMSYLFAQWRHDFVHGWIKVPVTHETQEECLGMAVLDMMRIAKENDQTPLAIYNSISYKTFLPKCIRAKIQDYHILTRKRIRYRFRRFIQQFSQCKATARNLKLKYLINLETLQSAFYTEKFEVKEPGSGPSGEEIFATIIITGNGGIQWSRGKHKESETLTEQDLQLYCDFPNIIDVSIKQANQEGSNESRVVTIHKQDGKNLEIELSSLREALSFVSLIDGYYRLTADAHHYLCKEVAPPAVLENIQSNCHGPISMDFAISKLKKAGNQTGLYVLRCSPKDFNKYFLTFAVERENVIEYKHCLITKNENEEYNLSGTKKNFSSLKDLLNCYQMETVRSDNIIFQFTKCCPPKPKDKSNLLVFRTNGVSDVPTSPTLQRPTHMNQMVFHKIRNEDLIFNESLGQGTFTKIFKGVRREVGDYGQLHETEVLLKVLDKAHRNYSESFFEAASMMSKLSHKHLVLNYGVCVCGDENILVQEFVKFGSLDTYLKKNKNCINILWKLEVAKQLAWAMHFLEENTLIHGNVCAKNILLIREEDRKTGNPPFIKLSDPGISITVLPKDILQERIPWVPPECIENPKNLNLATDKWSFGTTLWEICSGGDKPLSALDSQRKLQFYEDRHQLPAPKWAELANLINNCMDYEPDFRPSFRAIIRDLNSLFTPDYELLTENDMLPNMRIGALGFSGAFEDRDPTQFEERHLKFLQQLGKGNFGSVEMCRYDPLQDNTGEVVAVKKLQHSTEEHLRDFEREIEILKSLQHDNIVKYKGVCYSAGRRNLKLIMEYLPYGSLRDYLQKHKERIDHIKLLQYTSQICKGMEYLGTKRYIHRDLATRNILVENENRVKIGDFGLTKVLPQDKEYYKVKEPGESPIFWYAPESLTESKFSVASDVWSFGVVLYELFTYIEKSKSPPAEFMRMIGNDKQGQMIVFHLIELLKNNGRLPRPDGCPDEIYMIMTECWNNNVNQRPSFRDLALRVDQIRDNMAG
# assay.remarks: radiometric filter-binding kinase assay
# reported.conditions: compound 0.1 µM
Numbers only, in %.

Answered examples (2):
{"molecule": "Cc1cccc(-c2nn(C(=S)Nc3ccccc3)cc2-c2ccnc3ccccc23)n1", "residual activity / %": 107}
{"molecule": "COc1cc(O)c2c(c1)[C@H]1OC1C[C@H](O)[C@H](O)C(=O)/C=C\\C[C@H](C)OC2=O (stereo partly drawn)", "residual activity / %": 101}

Switching to the query record.
IN: Recorded residual activity of CCn1c(-c2nonc2N)nc2cncc(CNC3CCNCC3)c21 , please.
OUT: 108

====

# target.under.test: SYK (human)
# assay.remarks: radiometric filter-binding kinase assay
# reported.conditions: compound 1.0 µM
Would you mind telling me the reported residual activity of each entry?
One number for each entry, in %.

Answered examples (5):
{"compound": "O=C(N[C@@H](COc1ccc2[nH]c(=O)[nH]c2c1)c1ccccc1)c1cccn(Cc2ccc(F)c(F)c2)c1=O", "residual activity, %": 88}
{"compound": "Cc1cc(SCc2sc(-c3ccc(C(F)(F)F)cc3)nc2C)ccc1OCC(=O)O", "residual activity, %": 103}
{"compound": "COc1cc2ncn(-c3cc(OCc4ccccc4S(C)(=O)=O)c(C#N)s3)c2cc1OC", "residual activity, %": 95}
{"compound": "O=C1Nc2nc(-c3c(O)cccc3OCC3CC3)cc(C3CCCNC3)c2CO1 (stereo unspecified)", "residual activity, %": 106}
{"compound": "N#Cc1c(C2CCNCC2)cc(-c2c(O)cccc2OCC2CC2)nc1N", "residual activity, %": 88}

Below is a list of compounds. For each, state its recorded residual activity.
1. Cc1ccc(=O)n(-c2ccccc2)c1
2. CC(C)(C#N)c1ccc(N2C(=O)OCc3cnc4ccc(-c5cnc6ccccc6c5)cc4c32)cc1
3. CN1C(=O)[C@@H](Cc2c[nH]c3ccccc23)NC1=S
4. O=C(NCCCNc1nc(Nc2cccc(CN3CCOCC3)c2)ncc1C1CC1)C1CCC1
5. CCn1c(-c2nonc2N)nc2cncc(CNC3CCNCC3)c21
6. FC(F)(F)c1ccc(-c2ccc(Oc3cncc4sc(-c5nn[nH]n5)cc34)cc2)cc1
7. CCc1cncnc1N1CCN(Cc2nc3cc(C(F)(F)F)ccc3[nH]2)CC1
8. CCCCCc1ccc(/C=C/[C@H](O)[C@@H](CO)NC)cc1

OUT:
1: 99; 2: 105; 3: 84; 4: 93; 5: 101; 6: 114; 7: 100; 8: 105

Below is a list of compounds. For each, state its recorded residual activity.
1. O=C(Nc1ccccc1-c1cn2c(CN3CCNCC3)csc2n1)c1cnc2ccccc2n1
2. NC(=O)c1cc(-c2ccnc(NC3CCCCC3)c2)nc(N2CCNCC2)c1
3. c1ccc2c(-c3cnn4cc(-c5ccc(N6CCNCC6)cc5)cnc34)ccnc2c1
4. NC(=O)c1cc2c(-c3cccc(-c4ccccc4)c3)cnc(N)c2s1
5. C[C@H]1CCCC(=O)CCC/C=C/c2cc(O)cc(O)c2C(=O)O1

OUT:
1: 93; 2: 104; 3: 80; 4: 88; 5: 93

Below is a list of compounds. For each, state its recorded residual activity.
1. COc1cc(O)c2c(c1)[C@H]1OC1C[C@H](O)[C@H](O)C(=O)/C=C\C[C@H](C)OC2=O (stereo partly specified)
2. Cc1cc(NC(=O)c2cccc(NC(=O)/C=C/CN(C)C)c2)ccc1Nc1nccc(-c2cccnc2)n1
3. O=c1c(O)c(-c2ccc(O)c(O)c2)oc2cc(O)c(O)c(O)c12

OUT:
[85, 88, 89]

====

# target.under.test: MKNK1 (human) (UniProt Q9BUB5)
# Sequence (Q9BUB5 whole entry, looked up): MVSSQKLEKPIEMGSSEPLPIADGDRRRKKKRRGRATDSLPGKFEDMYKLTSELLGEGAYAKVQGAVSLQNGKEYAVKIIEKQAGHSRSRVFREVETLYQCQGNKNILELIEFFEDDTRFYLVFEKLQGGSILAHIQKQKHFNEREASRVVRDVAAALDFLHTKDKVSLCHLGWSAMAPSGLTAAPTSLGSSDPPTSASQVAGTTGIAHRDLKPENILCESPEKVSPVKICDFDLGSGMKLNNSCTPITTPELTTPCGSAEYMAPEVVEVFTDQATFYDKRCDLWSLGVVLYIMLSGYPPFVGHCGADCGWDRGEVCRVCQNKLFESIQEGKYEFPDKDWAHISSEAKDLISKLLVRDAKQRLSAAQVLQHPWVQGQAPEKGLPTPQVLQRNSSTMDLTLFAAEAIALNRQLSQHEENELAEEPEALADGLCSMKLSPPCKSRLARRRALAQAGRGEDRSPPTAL
# assay.remarks: radiometric filter-binding kinase assay
# reported.conditions: compound 10.0 µM
With a cut-off of 90%, any residual activity strictly below it is called Satisfied; any residual activity meeting it or above is called Not satisfied.

Field: example entries. Status: answers known.
{"compound": "Oc1ccc(/C=C/c2cc(O)cc(O)c2)cc1", "qualitative.label": "Satisfied"}
{"compound": "O=C1Nc2nc(-c3c(O)cccc3OCC3CC3)cc(C3CCCNC3)c2CO1 (centres undefined)", "qualitative.label": "Satisfied"}
{"compound": "COC(=O)/C=C/C(=O)OC", "qualitative.label": "Not satisfied"}
{"compound": "N#Cc1c(O)c2c(-c3ccc(-c4ccccc4O)cc3)csc2[nH]c1=O", "qualitative.label": "Not satisfied"}
{"compound": "Oc1ccc2ccccc2c1SSc1c(O)ccc2ccccc12", "qualitative.label": "Not satisfied"}
{"compound": "O=C(Nc1ccccc1-c1cn2c(CN3CCNCC3)csc2n1)c1cnc2ccccc2n1", "qualitative.label": "Not satisfied"}
{"compound": "O=C(N[C@@H](COc1ccc2[nH]c(=O)[nH]c2c1)c1ccccc1)c1cccn(Cc2ccc(F)c(F)c2)c1=O", "qualitative.label": "Not satisfied"}
{"compound": "CCCCCc1ccc(/C=C/[C@H](O)[C@@H](CO)NC)cc1", "qualitative.label": "Not satisfied"}
{"compound": "O=C(NOC[C@H](O)CO)c1ccc(F)c(F)c1Nc1ccc(I)cc1Cl", "qualitative.label": "Not satisfied"}
{"compound": "CC(C)C[C@H](NC(=O)CNC(=O)c1cc(Cl)ccc1Cl)B1OC(=O)CC(CC(=O)O)(C(=O)O)O1 (some centres undefined)", "qualitative.label": "Satisfied"}

IN: Field: below-cutoff. Rule: recorded residual activity strictly less than 90%. Subject: CCc1cncnc1N1CCN(Cc2nc3cc(C(F)(F)F)ccc3[nH]2)CC1
OUT: Satisfied

IN: Field: below-cutoff. Rule: recorded residual activity strictly less than 90%. Subject: CCOC(=O)c1ccc(N2NC(=O)/C(=C/c3ccc([N+](=O)[O-])o3)C2=O)cc1
OUT: Not satisfied

IN: Field: below-cutoff. Rule: recorded residual activity strictly less than 90%. Subject: O=C(NOCC(O)CO)c1ccc(F)c(F)c1Nc1ccc(I)cc1Cl (centres undefined)
OUT: Not satisfied

IN: Field: below-cutoff. Rule: recorded residual activity strictly less than 90%. Subject: CN1C(=O)[C@@H](Cc2c[nH]c3ccccc23)NC1=S
OUT: Satisfied

IN: Field: below-cutoff. Rule: recorded residual activity strictly less than 90%. Subject: NCC(=O)Nc1ccc(-n2nc(C(F)(F)F)cc2-c2ccc3c(ccc4ccccc43)c2)cc1
OUT: Satisfied

IN: Field: below-cutoff. Rule: recorded residual activity strictly less than 90%. Subject: NC(=O)c1c(NC(=O)C2CC2)sc2c1CCCC2
OUT: Satisfied
